studyTarget: AtPPO1 Y426M T461Q L479M (SEQ ID NO.132) (Arabidopsis thaliana, UniProt P55826, L479M/T461Q/Y426M)
Construct: made in house; host or cells: E. coli BL21 (DE3) hemG, crude extract
Sequence (P55826 35-537 Y426M/T461Q/L479M): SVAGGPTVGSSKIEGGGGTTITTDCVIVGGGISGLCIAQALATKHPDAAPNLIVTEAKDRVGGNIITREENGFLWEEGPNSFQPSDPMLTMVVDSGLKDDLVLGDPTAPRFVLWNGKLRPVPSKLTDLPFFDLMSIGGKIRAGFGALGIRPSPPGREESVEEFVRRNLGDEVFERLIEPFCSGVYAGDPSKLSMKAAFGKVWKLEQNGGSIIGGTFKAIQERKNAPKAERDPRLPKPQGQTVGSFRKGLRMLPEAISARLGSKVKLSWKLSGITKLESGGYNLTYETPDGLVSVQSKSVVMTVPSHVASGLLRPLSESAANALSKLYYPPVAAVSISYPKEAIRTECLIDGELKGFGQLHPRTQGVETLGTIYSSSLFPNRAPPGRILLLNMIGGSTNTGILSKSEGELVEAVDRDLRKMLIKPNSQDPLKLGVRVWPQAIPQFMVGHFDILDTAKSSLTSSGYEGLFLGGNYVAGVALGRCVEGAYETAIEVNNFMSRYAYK
protocolNotes: fluorescent Protoporphyrinogen Oxidase assay, crude extract
Format: biochemical
measurementParameters: read-out: percentage inhibition
# inhibition at 10 ppm >= 80% gives 1 (yes), anything below gives 0 (no)

Below, 4 molecules whose answers are already recorded.
*Q* Could you tell me if the measured inhibition at 10 ppm of CCOC(=O)COc1ncccc1Oc1cc(-n2c(=O)cc(C(F)(F)F)n(C)c2=O)c(F)cc1Cl [Herbicide A, epyrifenacil] reaches 80% or more?
*A* 0 (no)

*Q* Please indicate if the recorded inhibition at 10 ppm for C#CCN1C(=O)C(F)(F)Oc2cc(F)c(-n3c(=O)n(C)c(=S)n(C)c3=O)cc21 [Herbicide B, trifludimoxazin] meets or exceeds 80%.
*A* 1 (yes)

*Q* Could you verify whether the entry CCOC(=O)[C@]1(C)CC(c2cc(-n3c(=O)n(C)c(=S)n(C)c3=O)c(F)cc2Cl)=NO1 [Herbicide D] shows inhibition at 10 ppm of no less than 80%?
*A* 1 (yes)

*Q* In plain terms: is recorded inhibition at 10 ppm at least 80% for CCOC(=O)C1(C)CC(c2cc(-n3c(=O)cc(C(F)(F)F)n(C)c3=O)c(F)cc2Cl)=NO1 (centres unmarked) [Herbicide C] ?
*A* 0 (no)

Field: next molecule
*Q* Tell me whether inhibition at 10 ppm is at least 80% here: CC(C)N(C)S(=O)(=O)NC(=O)c1cc(-n2c(=O)cc(C(F)(F)F)n(C)c2=O)c(F)cc1Cl [Herbicide E, saflufenacil]
*A* 0 (no)

---

The entries below come with measured inhibition at 1 ppm values attached.
studyTarget: AtPPO1 V365L Y426V L479N (SEQ ID NO.126) (Arabidopsis thaliana, UniProt P55826, L479N/V365L/Y426V)
Construct: made in house; host or cells: E. coli BL21 (DE3) hemG, crude extract
Sequence (P55826 35-537 V365L/Y426V/L479N): as the sequence (P55826 35-537 Y426M/T461Q/L479M) above, with V331L, M392V, Q427T, M445N counted along it
protocolNotes: fluorescent Protoporphyrinogen Oxidase assay, crude extract
Format: biochemical
measurementParameters: read-out: percentage inhibition
Note: unit % is implicit; provide only the numeric part.

Some entries whose results are on file:
*Q* For the compound CC(C)N(C)S(=O)(=O)NC(=O)c1cc(-n2c(=O)cc(C(F)(F)F)n(C)c2=O)c(F)cc1Cl [Herbicide E, saflufenacil] , give its measured inhibition at 1 ppm value.
*A* 22

*Q* Identify the reported inhibition at 1 ppm for the following entry. C#CCN1C(=O)C(F)(F)Oc2cc(F)c(-n3c(=O)n(C)c(=S)n(C)c3=O)cc21 [Herbicide B, trifludimoxazin]
*A* 100

*Q* For the compound CCOC(=O)C1(C)CC(c2cc(-n3c(=O)cc(C(F)(F)F)n(C)c3=O)c(F)cc2Cl)=NO1 (centres unmarked) [Herbicide C] , report inhibition at 1 ppm.
*A* 44

---
*Q* Give the value of inhibition at 1 ppm reported for the following: CCOC(=O)COc1ncccc1Oc1cc(-n2c(=O)cc(C(F)(F)F)n(C)c2=O)c(F)cc1Cl [Herbicide A, epyrifenacil]
*A* 36

*Q* Complete the entry with inhibition at 1 ppm for CCOC(=O)[C@]1(C)CC(c2cc(-n3c(=O)n(C)c(=S)n(C)c3=O)c(F)cc2Cl)=NO1 [Herbicide D]
*A* 33
